target: T1, human CD47 expressed on CHO-CD47 cells (human, UniProt Q08722 19-323); assay: flow cytometry on CHO-CD47 cells (MFI, FIG. 2)
T1 construct: whole, on cells; also called cellular CD47; full-length CD47
METRIC NAME: binding result

scFv CD47-3 (scFv, V domains shown, scFv) VL: DIQMTQSPSSLSASVGDRVTITCRASQDVSNRVAWYQQKPGKAPKLLISRANGLASGVPSRFSGSGSGTDFTLTISSLQPEDFATYYCQQGSHFPITFGQGTKVEIKR VH: EVQLVESGGGLVQPGGSLRLSCAASGFTISNWWIHWVRQAPGKGLEWVAHIGPTVGKTYYADSVKGRFTISADTSKNTAYLQMNSLRAEDTAVYYCARGGFAMDHWGQGTLVTVSS: binds
scFv CD47-28 (scFv, V domains shown, scFv) VL: DIQMTQSPSSLSASVGDRVTITCRASQDVHGKVAWYQQKPGKAPKLLIYYARNLYSGVPSRFSGSGSGTDFTLTISSLQPEDFASYYCQQYFNFPLTFGQGTKVEIKR VH: EVQLVESGGGLVQPGGSLRLSCAASGFTITNWWIHWVRQAPGKGLEWVAEINPFGGNTYYADSVKGRFTISADTSKNTAYLQMNSLRAEDTAVYYCTRGGYAMDYWGQGTLVTVSS: binds
scFv CD47-4 (scFv, V domains shown, scFv) VL: DIQMTQSPSSLSASVGDRVTITCRASQSVDNGVAWYQQKPGKAPKLLIYSATRLYPGVLSRFSGSGSGTDFTLTISSLQPEDFATYYCQQSSTFPLTFGQGTKVEIKR VH: EVQLVESGGGLVQPGGSLRLSCAASGFTINDYWIHWVRQAPGKGLEWVAHIWPTYGGTHYADSVKGRFTISADTSKNTAYLQMNSLRAEDAAVYYCARGGYSLDIWGQGTLVTVSS: binds
